# Test system: CCRF-CEM
# testDescription: NCI tumour cell line growth inhibition, 48 h
The source made the active and inactive calls. Rule as the data show it: active = GI50 up to about 1.1 µM and inactive = higher.
The categories you may choose from are yes for active, no for inactive

Previously resolved entries follow.
- compound: "Cc1ccc(SSCCCCCS(=O)O)cc1"
  qualitativeLabel: "no"
- compound: "Clc1ccc(CCN2CCN(CCCc3ccccc3)CC2)cc1Cl"
  qualitativeLabel: "no"
- compound: "O=c1[nH]cnc2c1ncn2[C@@H]1C[C@@H]1CO"
  qualitativeLabel: "no"
- compound: "C[n+]1c(-c2ccc(/C=N/NC(=S)N/N=C/c3ccc(-c4cn5ccsc5[n+]4C)cc3)cc2)cn2ccsc21"
  qualitativeLabel: "no"
- compound: "CCCC(=O)OC1CC(n2cc(F)c(=O)[nH]c2=O)OC1COP(=O)(OCC(Cl)(Cl)Cl)OCC(Cl)(Cl)Cl (centres undefined)"
  qualitativeLabel: "yes"

Tell me the recorded outcome of this test for O=C1O/C(=C\c2ccc(O)cc2)C(c2ccc(O)c(Cl)c2)=C1Cl . no

Outcome? COc1cc(C(=O)N(Cc2cccnc2)C(=S)N(Cc2cccnc2)C(=O)c2cc(OC)c(OC)c(OC)c2)cc(OC)c1OC no

Could you check what this test reported for C=Cc1c(-c2ccccc2)cnc2[nH]c3ccccc3c12 ? no

Please share the test call associated with Cc1nn2c(=O)c([N+](=O)[O-])c(/C=C/c3ccc(F)cc3)nc2s1 . no

----------
The following molecules are shown together with reported GI50 values.
# System: COLO 205
# testDescription: NCI tumour cell line growth inhibition, 48 h
Activity calls are given as the source filed them. Rule as the data show it: active = GI50 up to about 1.1 µM and inactive = higher.

Field: example entries. Status: answers known.
- molecule: "CC(=O)c1c[nH]cc1CO"
  GI50: "> 10 µM (inactive)"
- molecule: "NCCCCCC(CCN)SCC1OC(n2cnc3c(N)ncnc32)C(O)C1O (stereo not given)"
  GI50: "> 798 µM (inactive)"
- molecule: "COc1cccc(CC2Cc3ccccc3CC(=O)N2)c1 (stereo not given)"
  GI50: "74.1 µM (inactive)"
- molecule: "CC(C)(C)NNC(=O)/C(=C/c1ccc([N+](=O)[O-])cc1)NC(=O)c1ccccc1"
  GI50: "29 µM (inactive)"
- molecule: "CC(C)(Oc1ccc(-c2cccc3ccccc23)cc1)C(=O)O"
  GI50: "71 µM (inactive)"
- molecule: "CCCCCCCCCCCCCCCCCCNC(=S)NC=C1C(=O)c2ccccc2C1=O"
  GI50: "15.7 µM (inactive)"

I am curious: what GI50 value has been reported for c1ccc2c(c1)CCN2CCN1CCc2ccccc21 ? > 10 µM (inactive)

Suppose we examine the molecule COc1ccc(CCn2nccc2C)cc1 ; what GI50 value has been reported? > 100 µM (inactive)

// GI50 lookup, key: CSCC[C@@H](NC(=O)[C@H](CC(C)C)NC(=O)C(Cc1cnc[nH]1)NC(=O)CNC(=O)[C@@H](NC(=O)[C@H](C)NC(=O)[C@H](Cc1cn(C=O)c2ccccc12)NC(=O)[C@H](CCC(N)=O)NC(=O)[C@@H](N)CC(N)=O)C(C)C)C(N)=O (stereo not given in full) > 100 µM (inactive)

Look at this molecule and give its reported GI50. CCOC(=O)c1ccc(/N=C/C=C(\Nc2ccc(C(=O)OCC)cc2)C23CC4CC(CC(C4)C2)C3)cc1 45 µM (inactive)

GI50 for O=C(O)c1ccc([I+]c2ccccc2)cc1 ? > 100 µM (inactive)

So what does the record say about GI50 for O=C1C=CC(=O)c2cc(Sc3ccccc3)c(=O)c(Sc3ccccc3)cc21 ? 73.3 µM (inactive)

Reported GI50 for O=[N+]([O-])c1nccn1CCCNCCCn1ccnc1[N+](=O)[O-] : what is it? > 100 µM (inactive)

----------
# System: 786-0
# testDescription: NCI tumour cell line growth inhibition, 48 h
The source made the active and inactive calls. Cut-off read from the data, not from the text of the source: active = GI50 up to about 1.1 µM and inactive = higher.
# reported GI50; entries follow

Some solved entries appear below for comparison.
- compound: "COc1ccc(-c2cc(-c3ccccc3)c3c(n2)-c2ccccc2NC(=O)C3)cc1"
  measuredQuantity: "GI50"
  obsValue: "29 µM (inactive)"
- compound: "C#CC1(O)C(COP(=O)(O)OCC2OC(n3ccc(NCCCCCCCCCCCCCCCCCC)nc3=O)C(O)C2O)OC(n2ccc(N)nc2=O)C1O (configuration not stated)"
  measuredQuantity: "GI50"
  obsValue: "4.22 µM (inactive)"
- compound: "CCOC(=O)/C(C#N)=N\\Nc1ccc(-n2c(C)nc3ccc(Br)cc3c2=O)cc1"
  measuredQuantity: "GI50"
  obsValue: "83.9 µM (inactive)"
- compound: "COCN1CCN=c2c1c1c3c(c4ccccc4n23)CCC1"
  measuredQuantity: "GI50"
  obsValue: "> 100 µM (inactive)"
- compound: "COc1ccccc1/C=C1\\S/C(=N/Nc2nc(C)c(C(C)=O)s2)NC1=O"
  measuredQuantity: "GI50"
  obsValue: "29.4 µM (inactive)"
- compound: "CC(C)C[C@H](NC(=O)CCc1ccccc1)B(O)O"
  measuredQuantity: "GI50"
  obsValue: "12.3 µM (inactive)"

# get_value(readout='GI50', item= NC(=S)SCCC(=O)O ) > 100 µM (inactive)

----------
# Tested on: SW-620
# testDescription: NCI tumour cell line growth inhibition, 48 h
Active and inactive are the calls of the source. No stated cut-off is given here; in the data, active = GI50 up to about 1.1 µM and inactive = higher.
Quick list: GI50 per entry.

Past entries and their recorded results:
- compound: "C=CCc1cc(-c2cc(CC=C)c(O)c(CNC)c2)cc(CNC)c1O"
  subjectOfTest: "SW-620"
  GI50: "17.3 µM (inactive)"
- compound: "CC(C)=C[C@@H]1C[C@H](C)c2c(O)cc(C)c3c2C1=C(C)C(=O)C3=O [ELISABATIN A]"
  subjectOfTest: "SW-620"
  GI50: "16.1 µM (inactive)"
- compound: "c1ccc(C2=NNC3c4ccccc4-c4ccccc4N3C2)cc1 (stereo not given)"
  subjectOfTest: "SW-620"
  GI50: "33.4 µM (inactive)"
- compound: "Cc1cc2c(cc1Cl)Sc1nnc(Nc3ccccc3)n1S2(=O)=O"
  subjectOfTest: "SW-620"
  GI50: "7.87 µM (inactive)"

Look at this compound and give its reported GI50. CN(C)c1ccc2c(c1)oc(=O)c1ccccc12 11.4 µM (inactive)

----------
# Test system: Hs-578T
# testDescription: NCI tumour cell line growth inhibition, 48 h
Activity calls are given as the source filed them. Cut-off read from the data, not from the text of the source: active = GI50 up to about 1.1 µM and inactive = higher.
measuredQuantity: GI50

Before answering, review these 5 worked examples.
- compound: "C[n+]1c(-c2ccc(/C=N/NC(=S)N/N=C/c3ccc(-c4cn5ccsc5[n+]4C)cc3)cc2)cn2ccsc21"
  subjectOfTest: "Hs-578T"
  GI50: "> 100 µM (inactive)"
- compound: "CC(C)(C)c1cc(Br)c(O)c(CN(Cc2cc(C(C)(C)C)cc(Br)c2O)C2CCCCC2)c1"
  subjectOfTest: "Hs-578T"
  GI50: "13.1 µM (inactive)"
- compound: "c1csc(-c2ccc(-c3ccsc3)s2)c1"
  subjectOfTest: "Hs-578T"
  GI50: "98.4 µM (inactive)"
- compound: "COc1cccc(CC2Cc3ccccc3CC(=O)N2)c1 (stereo unspecified)"
  subjectOfTest: "Hs-578T"
  GI50: "21.4 µM (inactive)"
- compound: "CN(C)Cc1c(O)ccc2c1c1c(n2C)C(=O)c2ccccc2C1=O"
  subjectOfTest: "Hs-578T"
  GI50: "18.7 µM (inactive)"

For CC(Nc1ncc2c(n1)-c1ccccc1OC2)C(=O)O (stereo unspecified) , what is its reported GI50? 82.4 µM (inactive)

----------
# System: SNB-19
# testDescription: NCI tumour cell line growth inhibition, 48 h
Active and inactive are the calls of the source. Cut-off read from the data, not from the text of the source: active = GI50 up to about 1.1 µM and inactive = higher.
measuredQuantity: GI50

- molecule: "Cc1ccc(S(=O)(=O)C2CC2(Cl)Cl)cc1 (configuration not stated)"
  obsValue: "> 100 µM (inactive)"

Given the molecule Cc1ccc2c(c1)C1(C)OC(C=CC1=O)O2 (configuration not stated) , what is its reported GI50? 2.75 µM (inactive)

Fill blank: measured GI50 of the molecule COc1ccccc1NC(=O)C(=O)C(C(=O)c1ccccc1F)C1OC(=O)c2ccccc21 (configuration not stated) is ____. 19.3 µM (inactive)

// query GI50 value for entry Cc1nn2c(=O)c([N+](=O)[O-])c(/C=C/c3ccc(F)cc3)nc2s1 10.8 µM (inactive)

----------
# System: MDA-MB-435
# testDescription: NCI tumour cell line growth inhibition, 48 h
The source made the active and inactive calls. No stated cut-off is given here; in the data, active = GI50 up to about 1.1 µM and inactive = higher.
measuredQuantity: GI50

Example molecules with recorded GI50:
- molecule: "O=C1CN(c2ccccc2)C(=O)CN1NCNN1CC(=O)N(c2ccccc2)CC1=O"
  GI50: "> 100 µM (inactive)"
- molecule: "O=C1NCC2(CCN(CC3COc4ccccc4O3)CC2)N1c1ccccc1 (stereo unspecified)"
  GI50: "> 100 µM (inactive)"
- molecule: "CCOC(=O)C(NC(=O)CC(C)C)(NC(C)C)C(F)(F)F (stereo unspecified)"
  GI50: "> 100 µM (inactive)"
- molecule: "COc1ccc2c(c1)c1c3c(ccc4ncn2c43)N(CCO)CCN=1"
  GI50: "0.234 µM (active)"
- molecule: "ClCCc1ccccc1CC1=NCCc2ccccc21"
  GI50: "28.8 µM (inactive)"
- molecule: "C=C(C)[C@@H]1C[C@H]2O[C@](O)(C(=C)CC(=O)/C=C(/C)C[C@@H]3OC(=O)[C@]24O[C@@H]34)[C@H]1O"
  GI50: "> 100 µM (inactive)"
- molecule: "CC(C)CC(O)P(=O)(O)O.NC1CCCCC1 (stereo unspecified)"
  GI50: "> 100 µM (inactive)"
- molecule: "CCOC(=O)C(C)c1nc2cc3cccnc3c(Cl)c2[nH]c1=O (stereo unspecified)"
  GI50: "> 100 µM (inactive)"

Endpoint output: GI50 of COC(=O)/C=C\C(C#N)(C#N)/N=C/c1ccsc1 . Value? 5.4 µM (inactive)

For CCCNc1[nH]c(C(C)=O)c(N)c1C(=S)Nc1ccccc1 , what is its reported GI50? 21 µM (inactive)

Which GI50 is reported for this molecule? O=C1c2cccnc2S(=O)(=O)N1c1ccc(Br)cc1 > 100 µM (inactive)
